- assay_remarks: Terminal half life in Sprague-Dawley rat at 2 mg/kg, iv
- Format: ADME, organism-based
- Parameters: dose 2 mg/kg, route intravenous
- conditions_used: in vivo, read-out: beta t1/2 (converted)
test_readout: half-life (min)
Record the value in min, omitting the unit from your answer.

Query: Form field: reported half-life of `CC(=O)N[C@H]1[C@H]([C@H](O)[C@H](O)CO)OC(C(=O)NCc2cccc(F)c2)=C[C@@H]1NC(=N)N`
Response: 41.4

---

- assay_remarks: Tmax in Sprague-Dawley rat at 10 mg/kg, po
- Type: ADME, organism-based
- Parameters: dose 10 mg/kg, route oral
- conditions_used: in vivo
test_readout: Tmax (h)
Record the value in h, omitting the unit from your answer.

>  <compound>
CC(=O)N[C@H]1[C@H]([C@H](O)[C@H](O)CO)OC(C(=O)NCc2cccc(F)c2)=C[C@@H]1NC(=N)N

>  <Tmax, h>
1

$$$$

Query: Form field: reported Tmax of `CC(=O)N[C@H]1[C@H]([C@H](O)[C@H](O)CO)OC(C(=O)O)=C[C@@H]1N=C(N)N`
Response: 1.2

Query: Form field: reported Tmax of CCOC(=O)C1=C[C@@H](OC(CC)CC)[C@H](NC(C)=O)[C@@H](N)C1.O=P(O)(O)O [OSELTAMIVIR PHOSPHATE]
Response: 4

---

// values below are reported Vd
- assay_remarks: Volume of distribution at steady state in Sprague-Dawley rat at 10 mg/kg, iv
- Type: ADME, organism-based
- Parameters: dose 10 mg/kg, route intravenous
- conditions_used: in vivo, read-out: Vdss
Record the value in L/kg, omitting the unit from your answer.

>  <molecule>
CCOC(=O)C1=C[C@@H](OC(CC)CC)[C@H](NC(C)=O)[C@@H](N)C1.O=P(O)(O)O [OSELTAMIVIR PHOSPHATE]

>  <Vd / L/kg>
1.3

$$$$

Query: Form field: reported Vd of CC(=O)N[C@H]1[C@H]([C@H](O)[C@H](O)CO)OC(C(=O)O)=C[C@@H]1N=C(N)N [ZANAMIVIR]
Response: 0.8

---

- assay_remarks: AUC (0 to 8 hrs) in Sprague-Dawley rat at 2 mg/kg, iv
- Type: ADME, organism-based
- Parameters: time < 8 hr, dose 2 mg/kg, route intravenous
- conditions_used: plasma
test_readout: AUC(0-t) at 8 h (ng·h/mL)
Record the value in ng·h/mL, omitting the unit from your answer.

Query: Form field: reported AUC(0-t) at 8 h of `CC(=O)N[C@H]1[C@H]([C@H](O)[C@H](O)CO)OC(C(=O)NCc2cccc(F)c2)=C[C@@H]1NC(=N)N`
Response: 5380

---

- target: Neuraminidase (Influenza A virus, UniProt B4URF0)
- Sequence (B4URF0 whole entry): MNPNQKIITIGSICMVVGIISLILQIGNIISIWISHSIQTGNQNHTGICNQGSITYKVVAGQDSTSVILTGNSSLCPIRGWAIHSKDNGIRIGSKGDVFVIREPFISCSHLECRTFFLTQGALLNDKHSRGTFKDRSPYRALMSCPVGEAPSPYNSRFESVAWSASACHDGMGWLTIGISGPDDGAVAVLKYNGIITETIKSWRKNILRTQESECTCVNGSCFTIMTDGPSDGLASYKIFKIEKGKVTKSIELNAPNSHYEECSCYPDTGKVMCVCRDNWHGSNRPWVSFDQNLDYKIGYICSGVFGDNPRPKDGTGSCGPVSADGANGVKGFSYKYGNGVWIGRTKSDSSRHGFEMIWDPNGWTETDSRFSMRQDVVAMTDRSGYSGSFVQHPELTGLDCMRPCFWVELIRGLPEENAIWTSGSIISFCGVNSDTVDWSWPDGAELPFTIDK
- assay_remarks: Inhibition of Influenza A virus (A/Indonesia/5/2005(H5N1)) neuraminidase infected in chick embryo using MUNANA as substrate after 1 hr by spectrophotometric analysis
test_readout: IC50 (µM)
Record the value in µM, omitting the unit from your answer.

>  <smiles_text>
CC(=O)N[C@H]1[C@H]([C@H](O)[C@H](O)CO)OC(C(=O)NCc2ccccc2)=C[C@@H]1O

>  <IC50 (µM)>
822

$$$$

Query: Form field: reported IC50 of `CC(=O)N[C@H]1[C@H]([C@H](O)[C@H](O)CO)OC(C(=O)N[C@H](C(=O)O)c2ccccc2)=C[C@@H]1O`
Response: 74.4

Query: Form field: reported IC50 of `CC(=O)N[C@H]1[C@H]([C@H](O)[C@H](O)CO)OC(C(=O)N[C@@H](C)C(=O)O)=C[C@@H]1NC(=N)N`
Response: 0.063
